test: PAMPA (parallel artificial membrane permeability assay); format: in vitro ADME; settings: PAMPA, pH 6.5
Positions of bridges follow the written chain, without caps; N, C: chain ends. Non-standard residues stand in square brackets, D forms with d. Residues, ends and D or L forms follow the SMILES beside them. *: point of attachment. NMeF = CN[C@@H](Cc1ccccc1)C(=O)O; NMeI = CC[C@H](C)[C@H](NC)C(=O)O; NMeL = CN[C@@H](CC(C)C)C(=O)O; NMeV = CN[C@H](C(=O)O)C(C)C; NMeA = CN[C@@H](C)C(=O)O; Piperidide = C1CCN(*)CC1; dNMeA = CN[C@H](C)C(=O)O
quantity-measured: Papp at 18 hours, 50 µM (×10⁻⁶ cm/s)
Give your result in ×10⁻⁶ cm/s as a bare value.

Query: Read the entry CC[C@H](C)[C@H]1C(=O)N[C@H](C(=O)N2CCCCC2)CC(=O)N(C)[C@H](C)C(=O)N[C@@H](CC(C)C)C(=O)N(C)[C@@H](Cc2ccccc2)C(=O)N(C)[C@@H](CC(C)C)C(=O)NCC(=O)N(C)[C@@H](C(C)C)C(=O)N(C)[C@@H](Cc2ccccc2)C(=O)N(C)[C@@H](C)C(=O)N[C@@H]([C@@H](C)O)C(=O)N(C)[C@@H](C)C(=O)N1C [DP-94] ([dNMeA]L[NMeF][NMeL]G[NMeV][NMeF][NMeA]T[NMeA][NMeI]D-Piperidide; lactam N-12) and write its reported Papp at 18 hours, 50 µM.
Result: 28

====

assay: PAMPA (parallel artificial membrane permeability assay); format: in vitro ADME; conditions: PAMPA; membrane permeation rate (Pe); 50 mM MOPSO buffer pH 6.5 with 5.0% glycocholic acid, 37° C., 18 hours; read-out: iPAMPA Pe
Starred links: 1 amine or outer side, 2 acyl side, 3 side chain; linkers in the order of their positions; H or OH if unused. Positions of bridges follow the written chain, without caps; N, C: chain ends. Non-standard residues stand in square brackets, D forms with d. Residues, ends and D or L forms follow the SMILES beside them. *: point of attachment. NMeF = CN[C@@H](Cc1ccccc1)C(=O)O; NMeI = CC[C@H](C)[C@H](NC)C(=O)O; NMeβAla = CN(CCC(=O)[*:2])[*:1]; NMeL = CN[C@@H](CC(C)C)C(=O)O; NMeA = CN[C@@H](C)C(=O)O; Piperidide = C1CCN(*)CC1; Aib = CC(C)(N)C(=O)O
Can you tell me Papp at 18 hours, 50 µM for the items I'm about to list?
Give just the numeric value; ×10⁻⁶ cm/s need not be written.

Query: For CC[C@H](C)[C@H]1C(=O)NCC(=O)N(C)[C@@H](CC(C)C)C(=O)N[C@@H]([C@@H](C)O)C(=O)N2CCC[C@H]2C(=O)NC(C)(C)C(=O)N[C@H](C(=O)N2CCCCC2)CC(=O)N(C)[C@@H](C)C(=O)N[C@@H](Cc2ccccc2)C(=O)N(C)[C@@H](CC(C)C)C(=O)N[C@@H](CC(C)C)C(=O)N1C [DP-564] ([NMeA]F[NMeL]L[NMeI]G[NMeL]TP[Aib]D-Piperidide; lactam N-11) , write its Papp at 18 hours, 50 µM.
Result: 27

Query: Provide measured Papp at 18 hours, 50 µM value, entry: CC[C@H](C)[C@@H]1NC(=O)[C@H](C)N(C)C(=O)CCN(C)C(=O)C[C@@H](C(=O)N2CCCCC2)NC(=O)[C@H](CC(C)C)N(C)C(=O)[C@H](CC(C)C)N(C)C(=O)[C@H](C)N(C)C(=O)[C@H]([C@@H](C)O)NC(=O)[C@H](Cc2ccccc2)N(C)C(=O)[C@H](Cc2ccccc2)N(C)C1=O [DP-140] ([NMeβAla][NMeA]I[NMeF][NMeF]T[NMeA][NMeL][NMeL]D-Piperidide; lactam N-10)
Result: 61

====

Experiment: PAMPA (parallel artificial membrane permeability assay)
Type: in vitro ADME
Settings: PAMPA; membrane permeation rate (Pe); 50 mM MOPSO buffer pH 6.5 with 5.0% glycocholic acid, 37° C., 18 hours; read-out: iPAMPA Pe
Description: 4 μL of a phospholipid-organic solvent solution composed of 10% (w/v) of egg lecithin, 0.5% (w/v) of cholesterol and dodecane (all purchased from Fluka) was added to a Millipore 96-well membrane filter (hydrophobic PVDF (polyvinylidene difluoride), pore size 0.45 microm) (purchased from Millipore Japan) to make an artificial phospholipid membrane. […]
Starred links: 1 amine or outer side, 2 acyl side, 3 side chain; linkers in the order of their positions; H or OH if unused. Positions of bridges follow the written chain, without caps; N, C: chain ends. Non-standard residues stand in square brackets, D forms with d. Residues, ends and D or L forms follow the SMILES beside them. *: point of attachment. NMePhe(3-Cl) = CN[C@@H](Cc1cccc(Cl)c1)C(=O)O; NMeF = CN[C@@H](Cc1ccccc1)C(=O)O; NMeGABA = CN(CCCC(=O)[*:2])[*:1]; NMeI = CC[C@H](C)[C@H](NC)C(=O)O; NMeβAla = CN(CCC(=O)[*:2])[*:1]; NMeL = CN[C@@H](CC(C)C)C(=O)O; NMeV = CN[C@H](C(=O)O)C(C)C; NMeA = CN[C@@H](C)C(=O)O; Piperidide = C1CCN(*)CC1; dNMeA = CN[C@H](C)C(=O)O; Sar = CNCC(=O)O; tBu = CC(C)(C)*
quantity-measured: Papp at 18 hours, 50 µM (×10⁻⁶ cm/s)
Express the result in ×10⁻⁶ cm/s but write the number alone.

Query: State, in one line, measured Papp at 18 hours, 50 µM of CC(C)C[C@H]1C(=O)N(C)[C@@H](C(C)C)C(=O)N[C@@H](Cc2ccccc2)C(=O)N[C@H](C(=O)N(C)[C@@H](Cc2ccccc2)C(=O)N[C@@H](C)C(=O)N2CCCCC2)CC(=O)N(C)CCCC(=O)N[C@@H](C(C)C)C(=O)N(C)[C@@H](CC(C)C)C(=O)N[C@@H]([C@@H](C)O)C(=O)N(C)[C@@H](Cc2ccccc2)C(=O)NCC(=O)N1C [DP-372] ([NMeGABA]V[NMeL]T[NMeF]G[NMeL][NMeV]FD[NMeF]A-Piperidide; lactam N-10)
Result: 42

Query: Let me know recorded Papp at 18 hours, 50 µM for CC(C)C[C@H]1C(=O)N[C@@H]([C@@H](C)O)C(=O)N[C@@H](COC(C)(C)C)C(=O)N[C@H](C(=O)N2CCCCC2)CC(=O)N(C)CCC(=O)N(C)[C@@H](Cc2ccccc2)C(=O)N(C)[C@@H](CC(C)C)C(=O)N1C [DP-747] ([NMeβAla][NMeF][NMeL][NMeL]TS(tBu)D-Piperidide; lactam N-7) , thanks.
Result: 20

Query: Write down Papp at 18 hours, 50 µM measured for item CC[C@H](C)[C@@H]1NC(=O)[C@H](C)N(C)C(=O)[C@H](C)N(C)C(=O)[C@H]([C@@H](C)O)NC(=O)CN(C)C(=O)[C@H](C(C)C)N(C)C(=O)[C@H](CC(C)C)N(C)C(=O)[C@H](Cc2ccccc2)NC(=O)[C@@H](C)N(C)C(=O)C[C@@H](C(=O)N(C)[C@@H](Cc2ccccc2)C(=O)N(C)[C@@H](Cc2ccccc2)C(=O)N[C@@H](C)C(=O)N2CCCCC2)NC1=O [DP-506] ([dNMeA]F[NMeL][NMeV][Sar]T[NMeA][NMeA]ID[NMeF][NMeF]A-Piperidide; lactam N-10)
Result: 20

Query: Assign Papp at 18 hours, 50 µM to the following record: CC[C@H](C)[C@H]1C(=O)N[C@H](C(=O)N2CCCCC2)CC(=O)N(C)[C@@H](C)C(=O)N(C)[C@@H](CC(C)C)C(=O)N(C)[C@@H](Cc2ccccc2)C(=O)N[C@@H]([C@@H](C)O)C(=O)N(C)CC(=O)N(C)[C@@H](CC(C)C)C(=O)N[C@@H](COC(C)(C)C)C(=O)N1C [DP-152] ([NMeA][NMeL][NMeF]T[Sar][NMeL]S(tBu)[NMeI]D-Piperidide; lactam N-9)
Result: 61

Query: Identify measured Papp at 18 hours, 50 µM corresponding to CC[C@H](C)[C@H](NC(=O)[C@@H](NC(=O)[C@H](Cc1ccccc1)NC(=O)[C@@H]1CC(=O)N[C@H](C(C)C)C(=O)N(C)[C@@H](C)C(=O)N(C)[C@@H](CC(C)C)C(=O)N[C@@H]([C@@H](C)O)C(=O)N(C)CC(=O)N(C)[C@@H](Cc2ccccc2)C(=O)N(C)[C@@H](CC(C)C)C(=O)N(C)[C@@H](Cc2cccc(Cl)c2)C(=O)N(C)[C@@H](CC(C)C)C(=O)N[C@@H](C)C(=O)N1)C(C)C)C(=O)N1CCCCC1 [DP-949] ([dV][NMeA][NMeL]T[Sar][NMeF][NMeL][NMePhe(3-Cl)][NMeL]ADFVI-Piperidide; lactam N-11)
Result: 0.11
